Tested on: volunteers with a history of skin sensitivity to Balsam of Peru
ASSAY NAME: in vivo skin anti-irritancy test, Balsam of Peru challenge, redness by Minolta chromameter (Example 2)
RUN CONDITIONS: 0.1% topical on ventral forearm, 20 min before Balsam of Peru; 7 volunteers
PARAMETER: % Decrease In Redness
Hi, when you answer, please include the unit after the number. Thanks!

Example entries and their recorded answers appear below.
CC(=O)N[C@H]1[C@H]([C@H](O)[C@H](O)CO)O[C@@](OC[C@H]2O[C@@H](O[C@H]3[C@H](O)[C@@H](O)[C@H](O)O[C@@H]3CO)[C@H](O)[C@@H](O)[C@H]2O)(C(=O)O)C[C@@H]1O :: 57%
CC(=O)N[C@H]1[C@H]([C@H](O)[C@H](O)CO)O[C@@](O[C@H]2[C@@H](O)[C@@H](CO)O[C@@H](O[C@H]3[C@H](O[C@@H]4O[C@@H](C)[C@@H](O)[C@@H](O)[C@@H]4O)[C@@H](NC(C)=O)C(O)O[C@@H]3CO)[C@@H]2O)(C(=O)O)C[C@@H]1O (stereo partly shown) [Sialyl Lewis X, NeuAcα2-3βGalβ1-4(Fucα1-3)GlcNAc, reference compound] :: 66%
OC[C@H]1O[C@@H](O[C@H]2[C@H](O)[C@@H](O)C(O)O[C@@H]2CO)[C@H](O)[C@@H](O)[C@H]1O (stereo partly shown) [Lactose, reference compound] :: 45%

API: the following record is the query input.
Lookup: GET /values?readout=% Decrease In Redness&item= CC(=O)N[C@H]1[C@H]([C@H](O)[C@H](O)CO)OC(O)(C(=O)O)C[C@@H]1O (stereo partly shown) [Sialic Acid, reference compound]
Found: 31%
